target: Proteasome subunit beta (Trypanosoma cruzi); assay: Trypanosoma cruzi proteasome chymotrypsin-like activity (TcProtChymo) assay.; format: functional; design: scale not given: in the data most compounds retested in dose-response had high values; settings: 9.37 µM
PROPERTY NAME: Percent Effect (%)
Write down the numeric answer in % and omit the unit.

Some solved cases for reference:
COMPOUND: C[C@@H]1CN(C2(C(=O)N3CCCCCC3)Cc3ccccc3C2)C[C@H](C)O1
Percent Effect [%]: -0.702
//
COMPOUND: Cc1cnn(C(C)C2CC2)c1NC(=O)c1cnccn1 (stereo unspecified)
Percent Effect [%]: -1.03
//
COMPOUND: O=C1CCC2(CCCN(CCc3ccccc3)C2)N1Cc1cccnc1 (stereo unspecified)
Percent Effect [%]: 18.8
//
COMPOUND: CC(C)(C(=O)NCC1CC1)c1ccccc1F
Percent Effect [%]: 15.6
//
COMPOUND: Cc1csc(Nc2cc(C3CCCCN3C)nc(C)n2)n1 (stereo unspecified)
Percent Effect [%]: 17.5
//
COMPOUND: O=C(c1ccncc1)N1C[C@@H]2CC[C@H](C1)N(C(=O)N1CCOCC1)C2
Percent Effect [%]: 15.5
//
COMPOUND: Cc1nc(C)c(CNC(=O)NC(c2nnc3n2CCC3)C(C)C)s1 (stereo unspecified)
Percent Effect [%]: 12.8
//
COMPOUND: CC1CCCCN1Cc1ccc(-c2ccccc2C(=O)O)cc1 (stereo unspecified)
Percent Effect [%]: 7.39
//
COMPOUND: O=C(c1ccc[nH]1)N1CCC(c2nccn2Cc2ccncc2)CC1
Percent Effect [%]: 8.7
//
COMPOUND: CCN(C)S(=O)(=O)N(CC)Cc1ccc2c(c1)OCO2
Percent Effect [%]: 8.11

Here's the next entry for you.
Lab book: Percent Effect of CSc1nccn1-c1cccc(C(=O)NCc2nnc(C)n2C)c1 noted as 3.98

###

// reported Percent Effect per item
target: Arginase-2, mitochondrial (Homo sapiens); experiment: in vitro enzyme assay to detect the production of urea directly proportional to the activity of Arginase II; type: functional; design: scale not given: in the data most compounds retested in dose-response had high values; details: 33.3 µM
Give a bare numeral; the unit % is implied.

The following compounds have reported results that may help.
COMPOUND: COC(=O)C1CCN(C(=O)c2ccc(N(C)S(C)(=O)=O)c(C)c2)CC1
UNIT TEXT: %
Percent Effect: -1.75
//
COMPOUND: CNC(=O)c1ccc(C(=O)N2CCCC2c2cnn(C)c2)cn1 (stereo unspecified)
UNIT TEXT: %
Percent Effect: -2.88
//
COMPOUND: O=C1CC[C@H]2CN(Cc3ccc(Cl)s3)CC[C@H]2N1CCc1c[nH]cn1
UNIT TEXT: %
Percent Effect: -1.6
//
COMPOUND: O=C(c1n[nH]c2c1CCN(Cc1nccs1)C2)N1CCCC1
UNIT TEXT: %
Percent Effect: 0.744

So for CCC(CNC(=O)c1ccc(Br)o1)N1CCc2ccccc2C1 (stereo unspecified) , the logged Percent Effect turned out to be -2.38

So for C[C@@H]1CN(C(=O)c2cnc(C3CC3)nc2)CC[C@@]1(O)C1CCOCC1 , the logged Percent Effect turned out to be -8.57

Lab note: measured Percent Effect of Cc1ccccc1CN(C)Cc1nc2c(cnn2C)c(=O)[nH]1 was -0.82

Noted for Cn1cc(CN2CCC3(CCCN3S(C)(=O)=O)CC2)cn1 : its Percent Effect reads -0.81

Percent Effect in this record for CC(C)c1nc(CN(C)C2CCN(Cc3nc(C4CC4)no3)C2)no1 (stereo unspecified) : 1.36

Per the record, Cc1cnn(CCC(=O)N2CCN(c3nc(C)cs3)CC2)c1 has Percent Effect of -2.66

Short answer for CN(Cc1cnn(-c2ccccc2)n1)CC1CCCN1c1cccnn1 (stereo unspecified) : Percent Effect was 0.36
